Reference source for all entries: a collection of fitness landscapes (doi:10.1126/science.1257360)

Measured enrichment ratio, listed per entry.
B1: PhoQ; a variant is named by its letters at X, in order, P23837 (parent)
chain: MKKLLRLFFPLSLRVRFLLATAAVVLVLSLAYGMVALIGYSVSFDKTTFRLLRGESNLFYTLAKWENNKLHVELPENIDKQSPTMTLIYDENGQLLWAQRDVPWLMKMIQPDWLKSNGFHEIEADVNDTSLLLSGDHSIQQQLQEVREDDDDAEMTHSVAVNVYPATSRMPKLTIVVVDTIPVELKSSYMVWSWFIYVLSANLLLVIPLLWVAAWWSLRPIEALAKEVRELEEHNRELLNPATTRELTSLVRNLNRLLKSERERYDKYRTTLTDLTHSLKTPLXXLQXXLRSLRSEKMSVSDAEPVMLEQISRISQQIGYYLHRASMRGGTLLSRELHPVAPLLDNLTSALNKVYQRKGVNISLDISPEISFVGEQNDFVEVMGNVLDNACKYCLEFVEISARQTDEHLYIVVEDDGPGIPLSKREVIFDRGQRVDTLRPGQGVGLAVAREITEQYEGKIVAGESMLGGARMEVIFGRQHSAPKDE

variants of: B1; test: enrichment ratio after two sorts for PhoP signalling (ratio (wild type AVST 3.29)); higher = more functional; conditions: with PhoP (E. coli)
The full ranking holds about 140,000 sequences; the median of “enrichment ratio after two sorts for PhoP signalling” is about 0, and the highest 2% start at about 11. Shown is part of a subset that was picked to be rich in the highest values.
measurement_type: enrichment ratio

variant_notation=SDAE recorded_result="≤ 0.25"
variant_notation=AKAY recorded_result=13.6
variant_notation=TSSH recorded_result=11.3
variant_notation=ITYK recorded_result="≤ 0.25"
variant_notation=TEFQ recorded_result=8.52
variant_notation=KFLW recorded_result="≤ 0.25"
variant_notation=AQYI recorded_result="≤ 0.25"
variant_notation=KSSH recorded_result="≤ 0.25"
variant_notation=TEFI recorded_result=9.19
variant_notation=IYFT recorded_result="≤ 0.25"
variant_notation=FLKL recorded_result="≤ 0.25"
variant_notation=AQAY recorded_result=15.2
variant_notation=MQHY recorded_result=12.6
variant_notation=KCME recorded_result="≤ 0.25"
variant_notation=TVHE recorded_result="≤ 0.25"
variant_notation=ANNY recorded_result=6.43
variant_notation=TEFC recorded_result=14.4
variant_notation=TYTW recorded_result="≤ 0.25"
variant_notation=MQHF recorded_result="≤ 0.25"
variant_notation=DDND recorded_result="≤ 0.25"
variant_notation=TEFP recorded_result="≤ 0.25"
variant_notation=KQFM recorded_result="≤ 0.25"
variant_notation=MQFA recorded_result="≤ 0.25"
variant_notation=MEFN recorded_result=7.67
variant_notation=MQFM recorded_result=12.3
variant_notation=NEMI recorded_result=29
variant_notation=HHQY recorded_result="≤ 0.25"
variant_notation=DDGS recorded_result="≤ 0.25"
variant_notation=TSKH recorded_result="≤ 0.25"
variant_notation=NQAY recorded_result="≤ 0.25"
variant_notation=KMPM recorded_result="≤ 0.25"
variant_notation=TKYS recorded_result="≤ 0.25"
variant_notation=TVME recorded_result=11.7
variant_notation=QQHY recorded_result=21.2
variant_notation=HCSH recorded_result="≤ 0.25"
variant_notation=IAHY recorded_result="≤ 0.25"
variant_notation=QHHY recorded_result="≤ 0.25"
variant_notation=SHMI recorded_result=5.85
variant_notation=MQFY recorded_result="≤ 0.25"
variant_notation=MQGD recorded_result="≤ 0.25"
variant_notation=TVSH recorded_result=15.9
variant_notation=NRIH recorded_result="≤ 0.25"
